Reported neutralization IC50 by item:
- target-or-system: Env of HIV-1 strain ZM53M.PB12 (HIV-1)
- method-summary: cell-based or functional assay
measured-quantity: neutralization IC50

INSERT INTO results (binder, measured_quantity, result) VALUES
  ('8ANC3630 (antibody, V domains shown) VH: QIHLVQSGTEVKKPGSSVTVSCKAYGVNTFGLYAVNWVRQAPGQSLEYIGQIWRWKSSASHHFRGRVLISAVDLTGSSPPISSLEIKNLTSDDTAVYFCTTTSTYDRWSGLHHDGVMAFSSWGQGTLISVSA VL: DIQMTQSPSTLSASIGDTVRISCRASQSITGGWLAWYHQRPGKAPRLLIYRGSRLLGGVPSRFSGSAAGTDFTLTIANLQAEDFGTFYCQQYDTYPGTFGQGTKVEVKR', 'neutralization IC50', '> 30 µg/mL'),
  ('γ44κ61 (antibody, V domains shown) VH: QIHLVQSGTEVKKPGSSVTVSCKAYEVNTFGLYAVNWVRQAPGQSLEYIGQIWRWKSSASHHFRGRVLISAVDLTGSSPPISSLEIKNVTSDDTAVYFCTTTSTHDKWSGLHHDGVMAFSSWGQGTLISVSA VL: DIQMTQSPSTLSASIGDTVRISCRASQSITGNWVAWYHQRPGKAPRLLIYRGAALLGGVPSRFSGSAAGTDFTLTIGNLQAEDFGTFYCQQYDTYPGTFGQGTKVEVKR', 'neutralization IC50', '> 15 µg/mL'),
  ('γ59κ61 (antibody, V domains shown) VH: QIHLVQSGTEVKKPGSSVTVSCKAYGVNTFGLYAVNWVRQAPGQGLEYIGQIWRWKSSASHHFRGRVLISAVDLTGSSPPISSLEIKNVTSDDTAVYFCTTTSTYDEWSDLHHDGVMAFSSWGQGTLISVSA VL: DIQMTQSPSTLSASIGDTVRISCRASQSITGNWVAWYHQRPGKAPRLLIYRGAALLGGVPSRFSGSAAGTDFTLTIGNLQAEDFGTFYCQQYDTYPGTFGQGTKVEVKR', 'neutralization IC50', '13.3 µg/mL');

The measured values listed here are drawn from patent US20180171001A1.
